system: wheat, spring; test: Test D preemergence; type: in vivo, Triticum aestivum; settings: 62 g ai/ha, scale 0 to 100
outcome measure: Plant response rating, Wheat, Spring
Lab note: jot down the number only; don't add units.

| molecule | Plant response rating, Wheat, Spring |
| --- | --- |
| CCCc1cc(C(=O)NCC(F)(F)F)nn1Cc1cc(C(F)(F)F)nn1C [Compound 138] | 10 |
| CCCc1cc(C(=O)NCC(F)(F)F)nn1Cc1ccnc(C(F)(F)F)c1 [Compound 105] | 40 |

Q. # Plant response rating, Wheat, Spring lookup, item CCc1cc(C(=O)NC(C)C)nn1Cc1ccnc(C(F)(F)F)c1 [Compound 103]
A. 10

Q. Reported Plant response rating, Wheat, Spring for CCc1cc(C(=O)NCC(F)(F)F)nn1Cc1ccnc(C(F)(F)F)c1 [Compound 78] : what is it?
A. 55

====

tested on: morningglory; assay: Test C postemergence; type: in vivo, Ipomoea coccinea; conditions: postemergence, 250 g ai/ha; scale 0 to 100 (0 no effect, 100 complete control)
The entries below are paired with their reported Plant response rating, Morningglory.
Returns: the value as a bare number; no unit string appended.

| compound | Plant response rating, Morningglory |
| --- | --- |
| CCc1cc(C(=O)NCC(F)(F)F)nn1Cc1cc(OC(F)F)nn1C [Compound 206] | 65 |
| CCOc1cc(C(=O)NC2CC2)nn1Cc1ccnc(OC(F)F)c1 [Compound 133] | 100 |
| Cc1cc(C(=O)NC(C)C)nn1Cc1ccnc(C(F)(F)F)c1 [Compound 197] | 98 |
| CCc1cc(C(=O)NCC(F)(F)F)nn1Cc1ccnc(C(F)(F)F)c1 [Compound 78] | 100 |
| CCc1cc(C(=O)NC2CC2)nn1Cc1ccnc(OC(F)F)c1 [Compound 98] | 90 |
| CCCc1cc(C(=O)NOCC)nn1Cc1ccnc(C(F)(F)F)c1 [Compound 185] | 75 |

Attention now turns to another entry.
Q. Plant response rating, Morningglory for CCOc1cc(C(=O)NC(C)C)nn1Cc1ccnc(C(F)(F)F)c1 [Compound 188] ?
A. 98

====

test system: crabgrass, large; experiment: Test A preemergence; type: in vivo, Digitaria sanguinalis; details: preemergence, 500 g ai/ha, visual injury after approx. 10 days, 0 to 100 scale (0 no effect, 100 complete control)
Quick reference for Crabgrass, Large plant response rating among some compounds
Write no unit; give the number alone.

| structure notation | Crabgrass, Large plant response rating |
| --- | --- |
| CCc1cc(-c2ccc(F)cc2)nn1Cc1ccnc(C(F)(F)F)c1 | 100 |
| CCc1cc(C(=O)NN(C)C)nn1Cc1ccnc(C(F)(F)F)c1 | 10 |
| CCCNC(=O)c1cc(CCC)n(Cc2cc(C(F)(F)F)nn2C)n1 | 100 |
| CCc1cc(C(=O)NOC)nn1Cc1ccnc(C(F)(F)F)c1 | 100 |
| CCNC(=O)c1cc(CCCl)n(Cc2ccnc(C(F)(F)F)c2)n1 | 100 |

Q. So what's the measured Crabgrass, Large plant response rating for this one? CCc1cc(C(=O)NCC2CC2)nn1Cc1ccnc(C(F)(F)F)c1
A. 100

Q. Can you share its Crabgrass, Large plant response rating? I mean this compound: CCCc1cc(C(=O)NCC(F)(F)F)nn1Oc1ccnc(C(F)(F)F)c1
A. 100

Q. Entry CCOc1cc(C(=O)NCC(F)(F)F)nn1Cc1ccnc(C(F)(F)F)c1 : reported Crabgrass, Large plant response rating = ?
A. 100

Q. Name the reported Crabgrass, Large plant response rating value associated with the compound O=C(NC1CC1)c1cc(Cl)n(Cc2cccc(C(F)(F)F)c2)n1
A. 40

====

test system: speedwell; experiment: Test D postemergence; format: in vivo, Veronica persica; conditions: Postemergence, 250 g ai/ha, scale 0 to 100
Quick reference for Speedwell plant response rating among some compounds
Number only, please.

# count of solved cases: 3
| structure notation | study target | Speedwell plant response rating |
| --- | --- | --- |
| CCCc1cc(C(=O)NCC(F)(F)F)nn1Cc1ccnc(C(F)(F)F)c1 | speedwell | 95 |
| CCCc1cc(C(=O)NCC(F)(F)F)nn1Cc1cc(C(F)(F)F)nn1C | speedwell | 100 |
| CCc1cc(C(=O)NC(C)C)nn1Cc1ccnc(C(F)(F)F)c1 | speedwell | 70 |

As a next step, examine the compound that follows.
Q. Find the measured Speedwell plant response rating: item CCOc1cc(C(=O)NC(C)C)nn1Cc1ccnc(C(F)(F)F)c1 , target or system speedwell.
A. 90

====

system: velvetleaf; assay: Test A preemergence; type: in vivo, Abutilon theophrasti; settings: Preemergence, 500 g ai/ha; 0 to 100 scale, 0 no effect, 100 complete control
# Velvetleaf plant response rating per entry
Write no unit; give the number alone.

| structure notation | reported result |
| --- | --- |
| Cc1cc(C(=O)NC2CC2)nn1Cc1cc(F)cc(C(F)(F)F)c1 | 0 |
| Cc1cc(C(=O)NC2CC2)nn1Cc1cccc(OC(F)(F)F)c1 | 50 |
| CCc1cc(C(=O)NOC(C)(C)CC)nn1Cc1cccc(OC(F)(F)F)c1 | 40 |

Q. Tell me the measured Velvetleaf plant response rating of Cc1cc(C(=O)NCC(F)(F)C(F)(F)F)nn1Cc1cccc(C(F)(F)F)c1 , please.
A. 0

====

tested on: morningglory; assay: Test A postemergence; type: in vivo, Ipomoea spp.; conditions: Postemergence, 125 g ai/ha; 0 to 100 scale, 0 no effect, 100 complete control
outcome measure: Morningglory plant response rating

Please review the entries below; each comes with its answer.
| structure notation | study target | Morningglory plant response rating |
| --- | --- | --- |
| CCc1cc(C(=O)NCC2CC2)nn1Cc1ccnc(C(F)(F)F)c1 | morningglory | 90 |
| CCc1cc(C(=O)NC2CC2)nn1Cc1ccnc(OCC(F)(F)F)c1 | morningglory | 100 |
| Cc1cc(C(=O)NC(C)C)nn1Cc1ccnc(C(F)(F)F)c1 | morningglory | 80 |
| CCOc1cc(C(=O)NC(C)C)nn1Cc1ccnc(C(F)(F)F)c1 | morningglory | 70 |
| CCc1cc(C(=O)NCC(F)(F)F)nn1Oc1cccc(OC(F)(F)F)c1 | morningglory | 30 |

Q. Need Morningglory plant response rating of CCCCc1cc(C(=O)NCCC)nn1Cc1ccnc(C(F)(F)F)c1 , thanks.
A. 100

Q. Data request, read-out Morningglory plant response rating, for CCOc1cc(C(=O)NC2CC2)nn1Cc1ccnc(C(F)(F)F)c1
A. 90

Q. Would you kindly share the measured Morningglory plant response rating for CCNC(=O)c1cc(CC)n(Oc2cccc(OC(F)(F)F)c2)n1 ?
A. 0

====

The entries below come with measured Barnyardgrass plant response rating values attached.
test system: barnyardgrass; test: Test A preemergence; type: in vivo, Echinochloa crus-galli; conditions: Preemergence, 1000 g ai/ha; 0 to 100 scale, 0 no effect, 100 complete control
When you answer, write just the number.

Solved cases (3 shown):
| structure notation | Barnyardgrass plant response rating |
| --- | --- |
| CCc1cc(C(=O)NCCC(F)(F)F)nn1Cc1cccc(OC(F)(F)F)c1 | 10 |
| CCCCNC(=O)c1cc(CC)n(Cc2cccc(C(F)(F)F)c2)n1 | 10 |
| CCc1cc(C(=O)NCCOC)nn1Cc1cccc(OC(F)(F)F)c1 | 10 |

Q. Fill blank: measured Barnyardgrass plant response rating of the compound CCNC(=O)c1cc(CC)n(Cc2cccc(OC(F)(F)F)c2)n1 is ____.
A. 90

Q. Can you share its Barnyardgrass plant response rating? I mean this compound: CCNC(=O)c1cc(SC)n(Cc2cccc(C(F)(F)F)c2)n1
A. 0

====

test system: morningglory; assay: Test A preemergence; assay type: in vivo, Ipomoea spp.; conditions: preemergence, 500 g ai/ha, visual injury after approx. 10 days, 0 to 100 scale (0 no effect, 100 complete control)
outcome measure: Morningglory plant response rating
Number only, no unit.

Below: 4 compounds and their reported Morningglory plant response rating.
| structure notation | Morningglory plant response rating |
| --- | --- |
| CCCc1cc(C(=O)NC2CC2)nn1Oc1ccnc(C(F)(F)F)c1 | 50 |
| O=C(NCC(F)(F)F)c1cc(CCCl)n(Cc2ccnc(C(F)(F)F)c2)n1 | 100 |
| CCc1cc(-c2ccc(C(F)(F)F)cc2)nn1Cc1nc(C(F)(F)F)nn1C | 40 |
| CCc1cc(C(=O)NC2CC2)nn1Cc1nc(C(F)(F)F)no1 | 70 |

Q. What value of Morningglory plant response rating has been recorded for this entry: Cc1cc(C(=O)NC(C)C)nn1Cc1ccnc(C(F)(F)F)c1
A. 100

Q. What value of Morningglory plant response rating has been recorded for this entry: CCCCc1cc(C(=O)NCC(F)(F)F)nn1Cc1ccnc(C(F)(F)F)c1
A. 30

Q. Which Morningglory plant response rating is reported for this compound? CCCNC(=O)c1cc(I)n(Cc2cccc(C(F)(F)F)c2)n1
A. 0

Q. So what does the record say about Morningglory plant response rating for CCc1cc(C(=O)NCC2CC2)nn1Cc1ccnc(C(F)(F)F)c1 ?
A. 100

Q. Please report the recorded Morningglory plant response rating for CCc1cc(C(=O)NC2CC2)nn1Cc1ccnc(OCC(F)(F)F)c1 .
A. 100

Q. I am curious: what Morningglory plant response rating value has been reported for CCc1cc(C(=O)NOC(C)C)nn1Cc1ccnc(C(F)(F)F)c1 ?
A. 100

Q. Name the reported Morningglory plant response rating value associated with the compound CCCCNC(=O)c1cc(CC)n(Oc2ccnc(C(F)(F)F)c2)n1
A. 20

Q. # input compound: CCCNC(=O)c1cc(CCC)n(Cc2cc(C(F)(F)F)nn2C)n1 ; wanted: its Morningglory plant response rating
A. 100

Q. Any idea what its Morningglory plant response rating is? The compound is CCOc1cc(C(=O)NCC(F)(F)F)nn1Cc1ccnc(C(F)(F)F)c1
A. 100
